Read-out: Insulin Like Growth Factor 1 (IGF1), IGF1 (gene 3479)
Experiment: LTEA_HepaRG_IGF1: Life Technologies and Expression Analysis (LTEA) Assay for Insulin Like Growth Factor 1 (IGF1) using HepaRG (AID 2283506)
Conditions: mRNA level, 48 h; actives raise or lower the signal
The source made the active and inactive calls. How the source made its calls: active means hit-call score of the fitted dose curve at least 0.9, where 1 is the maximum; inactive means score below 0.9.
measured_endpoint: AC50

CC(C)OC(=O)Nc1cccc(Cl)c1 = inactive
COc1nn(CSP(=S)(OC)OC)c(=O)s1 = inactive
Oc1ccc(Cl)cc1Cc1ccccc1 = inactive
OCCOc1ccccc1 = inactive
CCC(C)Nc1c([N+](=O)[O-])cc(C(C)(C)C)cc1[N+](=O)[O-] (centres undefined) = 48 µM (active)

**Q:** Report AC50 for "O=C(O)C(F)(F)C(F)(F)C(F)(F)C(F)(F)C(F)(F)C(F)(F)C(F)(F)F" please.
**A:** inactive

**Q:** Report AC50 for O=C(NC(=O)c1c(F)cccc1F)Nc1ccc(OC(F)(F)C(F)OC(F)(F)F)c(Cl)c1 (centres undefined) please.
**A:** inactive

**Q:** Report AC50 for O=S1OCC2C(CO1)C1(Cl)C(Cl)=C(Cl)C2(Cl)C1(Cl)Cl (centres undefined) please.
**A:** 42.2 µM (active)

**Q:** Report AC50 for CC1(C)C(C=C(Cl)Cl)C1C(=O)OC(C#N)c1ccc(F)c(Oc2ccccc2)c1 (centres undefined) please.
**A:** inactive
